Target: Steroid 17-alpha-hydroxylase/17,20 lyase (Rattus norvegicus)
Sequence (P11715 whole entry): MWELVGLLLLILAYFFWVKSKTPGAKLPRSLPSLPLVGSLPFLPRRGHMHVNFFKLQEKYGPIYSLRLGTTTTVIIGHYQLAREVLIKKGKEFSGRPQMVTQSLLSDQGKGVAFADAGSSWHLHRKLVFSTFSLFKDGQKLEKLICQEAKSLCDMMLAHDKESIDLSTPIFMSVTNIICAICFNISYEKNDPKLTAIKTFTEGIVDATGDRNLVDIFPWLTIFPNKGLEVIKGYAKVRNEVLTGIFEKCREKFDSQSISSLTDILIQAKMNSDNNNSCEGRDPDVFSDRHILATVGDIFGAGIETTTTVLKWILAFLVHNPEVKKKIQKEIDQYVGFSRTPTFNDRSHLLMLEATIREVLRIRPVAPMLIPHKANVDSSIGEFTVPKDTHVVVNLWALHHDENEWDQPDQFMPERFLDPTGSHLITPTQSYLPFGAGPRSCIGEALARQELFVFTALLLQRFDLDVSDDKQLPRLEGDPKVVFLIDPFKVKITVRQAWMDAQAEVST
pIC50: −log10 of the molar value.
Attribute measured: pIC50

Here's what some known entries look like.
Lab note: compound CNC(=O)c1ccc2sc3c(c2c1)CCN(Cc1cccnc1)C3 tested on Steroid 17-alpha-hydroxylase/17,20 lyase (Rattus norvegicus); recorded pIC50 was < 6.00

Lab note: compound COc1ccc2sc3c(c2c1)CCN(Cc1cccnc1)C3 tested on Steroid 17-alpha-hydroxylase/17,20 lyase (Rattus norvegicus); recorded pIC50 was < 6.00

Lab note: compound O=C(c1cccnc1)N1CCc2c(sc3ccc(F)cc23)C1 tested on Steroid 17-alpha-hydroxylase/17,20 lyase (Rattus norvegicus); recorded pIC50 was < 6.00

Lab note: compound c1cncc(CN2CCc3c(sc4ccccc34)C2)c1 tested on Steroid 17-alpha-hydroxylase/17,20 lyase (Rattus norvegicus); recorded pIC50 was 7.26 to 7.55

Moving on to another compound below.
Lab note: compound CC(=O)Nc1ccc2sc3c(c2c1)CCN(Cc1cccnc1)C3 tested on Steroid 17-alpha-hydroxylase/17,20 lyase (Rattus norvegicus); recorded pIC50 was < 6.00

Measured values drawn from ChEMBL document CHEMBL4024710 for this set.
